- test-details: inhibition of PEG-3 promoter activity – cell-based, HeLa, luciferase luminescence, primary screen (AID 588405)
- test-context: HeLa PEG-Prom luciferase reporter, overnight, at 20 µM, stronger effect = higher value
The campaign covered roughly 360,000 compounds. About 6,200 (1.7%) were called active. What follows is part of a selection rich in actives, with near analogues and random picks from the rest.
Examples of compounds with documented inhibition follow.
Just the number please, in %, no unit attached.

// inhibition lookup, compound = COc1ccc(Sc2ccc(NC(=O)c3cccc(Cl)c3)cc2C#N)cc1 , result: 14.8

// inhibition lookup, compound = O=C(NCC(=O)N1CCN(c2ccccc2F)CC1)c1cccs1 , result: -57

// inhibition lookup, compound = Cc1cccc(-c2cnc(C(O)c3cc(C)cc(C)c3)[nH]2)c1 (stereo not given) , result: 15.8

// inhibition lookup, compound = Cc1cccn2c(=O)c(/C=C(\C#N)S(=O)(=O)c3ccc(Cl)cc3)c(N3CCC(C(N)=O)CC3)nc12 , result: -3.35

// inhibition lookup, compound = CCOc1nc(NCCN2CCOCC2)nc(Nc2ccc(C)cc2)n1 , result: 5.29
